- procedure.summary: LogP by HPLC on reversed phase columns (EEC directive 79/831 Annex V.A8)
- Assay type: physicochemical
reported.endpoint: LogP

compound.string	result
COC(=O)C1(NC(=O)c2sc(Cl)c(Cl)c2Cl)CCOCC1	3.00^[a]
CCOC(=O)C1(NC(=S)c2sc(Cl)c(Cl)c2Cl)CC1	4.61^[a]
CCOC(=O)C1(NC(=O)c2sc(Cl)c(Cl)c2Cl)CSC1	3.92^[a]
CCOC(=O)[C@H](CO)NC(=O)c1sc(Cl)c(Cl)c1Cl	2.78^[a]

* * *

- Test system: Peronospora parasitica
- procedure.summary: In vivo preventive test on Peronospora parasitica (Crucifer downy mildew)
- assay.conditions: Hyaloperonospora parasitica, in Brassica oleracea, 120 h, 31 ppm of active ingredient, cabbage, evaluated 5 days after inoculation, read-out: efficacy
Each entry below carries its recorded pest or weed control at 31 ppm.

molecule	pest or weed control at 31 ppm
COC(=O)[C@H](CCCNC(=N)N)NC(=O)c1sc(Cl)c(Cl)c1Cl	90 to 100%
COC(=O)[C@H](CC(N)=O)NC(=O)c1sc(Cl)c(Cl)c1Cl	90 to 100%
COC(=O)C(CC(F)F)NC(=O)c1sc(Cl)c(Cl)c1Cl (stereo not shown)	90 to 100%
C[C@H](NC(=S)c1sc(Cl)c(Cl)c1Cl)C(=O)O	80 to 89%
CCSC(=O)[C@H](C)NC(=O)c1sc(Cl)c(Cl)c1Cl	90 to 100%
CNC(=S)SC[C@H](NC(=O)c1sc(Cl)c(Cl)c1Cl)C(=O)OC	90 to 100%
COC(=O)CNC(=S)c1sc(Cl)c(Cl)c1Cl	90 to 100%
NC(=S)CNC(=O)c1sc(Cl)c(Cl)c1Cl	90 to 100%
CCNC(=O)[C@@H](NC(=O)c1sc(Cl)c(Cl)c1Cl)C(C)C	90 to 100%
CCOC(=O)C(NC(=O)c1sc(Cl)c(Cl)c1Cl)c1ccccc1 (stereo not shown)	80 to 89%
